B1: Barstar, P11540 (parent)
chain: MKKAVINGEQIRSISDLHQTLKKELALPEYYGENLDALWDCLTGWVEYPLVLEWRQFEQSKQLTENGAESVLQVFREAKAEGCDITIILS

Variants of: B1
Details: Bacillus amyloliquefaciens; pH 8; 10 °C; Urea; CD; Tris Cl 50 mM; KCl 100 mM; structure 1BTA; whole UniProt chain shown
RECORDED METRIC: unfolding free energy (kcal/mol)
Report the value in kcal/mol with no unit label.

Any idea what its unfolding free energy is? The variant is MKKAVINGEQIRSISDLHQTLKKELALPEYYGENLDALWDCLTGWVEYPLVVEWRQFEQSKQLTENGAESVLQVFREAKAEGCDITIILS
2.4

For the variant MKKAVINGEQIRSISDLHQTLKKELALPEYYGENVDALWDCLTGWVEYPLVLEWRQFEQSKQLTENGAESVLQVFREAKAEGCDITIILS , what unfolding free energy is on record?
1.9

Which unfolding free energy reading was recorded for the variant MKKAVINGEQIRSISDVHQTLKKELALPEYYGENLDALWDCLTGWVEYPLVLEWRQFEQSKQLTENGAESVLQVFREAKAEGCDITIILS ?
1.9

Given MKKAVVNGEQIRSISDLHQTLKKELALPEYYGENLDALWDCLTGWVEYPLVLEWRQFEQSKQLTENGAESVLQVFREAKAEGCDITIILS , state its recorded unfolding free energy.
2
